test: DPPH radical scavenging assay; assay type: biochemical; conditions: read-out: DPPH (IC50); mean ± SEM, three determinations
pIC50: −log10 of the molar value.
Assign Fulfilled to entries whose pIC50 meets or exceeds 5; assign Not fulfilled to the rest.

CCCCCCCCNC(=O)Cc1ccc(O)c(O)c1 [Compound 3q, 2-(3,4-Dihydroxyphenyl)-N-octylacetamide] = Fulfilled
CCCCCCNC(=O)Cc1ccc(O)c(OC)c1 = Not fulfilled
CCCCCCCC(=O)NCc1ccc(O)c(O)c1 [Compound 3k, N-(3,4-Dihydroxybenzyl)octanamide] = Fulfilled
CCCCCCCCC(=O)NCc1ccc(O)c(OC)c1 [Compound 3l, N-(4-Hydroxy-3-methoxybenzyl)nonanamide] = Not fulfilled
CCCCCCCC(=O)NCc1ccc(O)c(OC)c1 [Compound 3i, N-(4-Hydroxy-3-methoxybenzyl) octanamide] = Not fulfilled

Request: Test whether the compound CCCCCCCCC(=O)NCc1ccc(O)c(O)c1 [Compound 3n, N-(3,4-Dihydroxybenzyl) nonanamide] records pIC50 of 5 or higher.
Response: Fulfilled
